Hey, just so you know, these numbers are from patent US20250313631A1.

# tested.system: T1, recombinant mouse VISTA (His-tagged) (mouse, UniProt Q9D659 33-191)
# T1 construct: also called murine VISTA; mVISTA
# T1 sequence (looked up): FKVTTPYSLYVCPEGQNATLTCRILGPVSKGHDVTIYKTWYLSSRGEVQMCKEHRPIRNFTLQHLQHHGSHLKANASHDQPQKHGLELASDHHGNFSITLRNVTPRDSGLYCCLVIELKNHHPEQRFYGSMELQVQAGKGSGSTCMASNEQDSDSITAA
# assay.details: ELISA, plate coated with mouse VISTA; unit nM from the legend paragraph 699
measured.attribute: pEC50
When answering, recall that pEC50 equals minus log10 of the concentration in mol/L, and write that number alone.

Answer with the recorded pEC50 of anti-VISTA clone V4-C9 IgG1 (antibody, V domains shown) VH: QVQLQESGPGLVKPSDTLSLTCTVSGYSITSDYAWNWIRQTPGKGLEWIGYITYSGYVSYNPSLRSRVTISRDTSKNQFSLKLSSVTAADTAVYSCARALYYPWYFDVWGTGTTVTVSS VL: EIVLTQSPATLSLSPGERATLSCRASSSVGYIHWYQQKPGQAPRPLIYATSNRATGIPARFSGSGSGTDNTLTISSLEPEDSAVYYCQQWSSYPPITFGGGTKLEVKR only.
9.74
